Data origin, for the record: patent US11286226B2

Collected viability at 1000 µM values appear next to each entry.
system: PC-3 (prostate); assay: Cell viability at 1 mM (CellTiter-GLO), PC-3; assay type: cell-based; conditions: Homo sapiens; 1.0 mM in DMSO, 48 h, PC-3; read-out: Percent Cell Viability of Treated Cell Lines at 1.0 mM, PC-3
Give the value, in units of %, as a plain number.

molecule | quantity unit | endpoint result
CC1=CC(=O)[C@@H]2[C@H]3C(=O)C=C(C)C[C@@H]3C=C[C@H]2C1 | % | 63
O=C1C2O[C@@H]2C[C@H]2C=C[C@@H]3CC4O[C@H]4C(=O)[C@H]3[C@H]12 (stereo partly shown) | % | 1
O=C1C=CC[C@@H]2[C@@H]1[C@@H]1C(=O)C=CC[C@H]1C1O[C@H]12 (stereo partly shown) | % | 0
O=C1CCC[C@H]2CC[C@@H]3CCCC(=O)[C@H]3[C@H]12 | % | 77
CC1=CC[C@H]2C(C)=CCC3(CCC=CC3=O)[C@@H]2C1=O (stereo partly shown) | % | 0

Q: Tell me viability at 1000 µM reported for "O=C1C=CC[C@H]2C=C[C@@H]3CC=CC(=O)[C@H]3[C@H]12"
A: 0

Q: Tell me viability at 1000 µM reported for "C[C@]12CC(=O)C=C[C@@H]1CC=CC2=O"
A: 1

Q: Tell me viability at 1000 µM reported for "C[C@@]12C=CC(=O)C[C@H]1C(=O)C=CC2"
A: 2

Q: Tell me viability at 1000 µM reported for "O=C1C=CC[C@H]2CC=C[C@@H]3CC=CC(=O)[C@H]3[C@H]12"
A: 0

Q: Tell me viability at 1000 µM reported for "CC1=CC[C@@H]2C(C)=C[C@@]3(C)CC=CC(=O)[C@@H]3[C@H]2C1=O"
A: 11

Q: Tell me viability at 1000 µM reported for "CC1=CC[C@H]2C(C)=C[C@@H]3CC=CC(=O)[C@@]3(C)[C@@H]2C1=O"
A: 1

Q: Tell me viability at 1000 µM reported for "CC1=C[C@@H]2[C@H](C(=O)CCC2(C)C)[C@H]2C(=O)[C@@H](C)CC[C@H]12"
A: 77

Q: Tell me viability at 1000 µM reported for "CC1=CC[C@H]2C=C[C@@H]3CC=C(C)C(=O)[C@H]3[C@@H]2C1=O"
A: 72
